Source: ChEMBL document CHEMBL3232855

# Subject of test: Glucagon receptor (Homo sapiens)
# Procedure details: Antagonist activity at human GCGR expressed in CHO cells assessed as inhibition of glucagon-stimulated cAMP production preincubated for 30 mins followed by glucagon induction measured after 45 mins by LANCE assay
# Type: functional, cell-based
Category key, based on recorded IC50: c1 (below 200 nM), c2 (200 nM to below 2000 nM), c3 (2000 nM or more)

- Compound string: "C[C@H](c1ccc(C(=O)NCCC(=O)O)cc1)N1C(=O)C(c2cc(F)cc(Cl)c2)=N[C@]12CC[C@@H](C(C)(C)C)CC2"
  Subject of test: "Glucagon receptor (Homo sapiens)"
  Assigned class: "c1"
- Compound string: "CC(C)[C@H](c1ccc(C(=O)NCc2nn[nH]n2)cc1)N1C(=O)C(c2cc(Cl)cc(Cl)c2)=N[C@]12CC[C@@H](C(C)(C)C)CC2"
  Subject of test: "Glucagon receptor (Homo sapiens)"
  Assigned class: "c3"
- Compound string: "CC[C@H]1CC[C@]2(CC1)N=C(c1cc(Cl)cc(Cl)c1)C(=O)N2[C@H](CCC(C)(C)C)c1ccc(C(=O)NCc2nn[nH]n2)cc1"
  Subject of test: "Glucagon receptor (Homo sapiens)"
  Assigned class: "c1"
- Compound string: "CC(C)(C)CC[C@H](c1ccc(C(=O)NCC(=O)O)cc1)N1C(=O)C(c2cc(Cl)cc(Cl)c2)=N[C@]12CC[C@@H](C(C)(C)C)CC2"
  Subject of test: "Glucagon receptor (Homo sapiens)"
  Assigned class: "c3"
- Compound string: "CC(C)(C)[C@H]1CC[C@]2(CC1)N=C(c1ccc(F)cc1)C(=O)N2Cc1ccc(C(=O)NCCC(=O)O)cc1"
  Subject of test: "Glucagon receptor (Homo sapiens)"
  Assigned class: "c2"
- Compound string: "C[C@H](NC(=O)c1ccc([C@@H](CCC(C)(C)C)N2C(=O)C(c3cc(Cl)cc(Cl)c3)=N[C@]23CC[C@@H](C(C)(C)C)CC3)cc1)c1nnn[nH]1"
  Subject of test: "Glucagon receptor (Homo sapiens)"
  Assigned class: "c3"
- Compound string: "CC(C)CC[C@H](c1ccc(C(=O)NCc2nn[nH]n2)cc1)N1C(=O)C(c2cc(Cl)cc(Cl)c2)=N[C@]12CC[C@@H](C(C)(C)C)CC2"
  Subject of test: "Glucagon receptor (Homo sapiens)"
  Assigned class: "c1"
- Compound string: "C[C@@H](NC(=O)c1ccc([C@@H](CCC(C)(C)C)N2C(=O)C(c3cc(Cl)cc(Cl)c3)=N[C@]23CC[C@@H](C(C)(C)C)CC3)cc1)c1nnn[nH]1"
  Subject of test: "Glucagon receptor (Homo sapiens)"
  Assigned class: "c3"
- Compound string: "CC(C)C[C@H](c1ccc(C(=O)NCc2nn[nH]n2)cc1)N1C(=O)C(c2cc(Cl)cc(Cl)c2)=N[C@]12CC[C@@H](C(C)(C)C)CC2"
  Subject of test: "Glucagon receptor (Homo sapiens)"
  Assigned class: "c2"
- Compound string: "C[C@H](c1ccc(C(=O)NC[C@H](O)C(=O)O)cc1)N1C(=O)C(c2cc(Cl)cc(Cl)c2)=N[C@]12CC[C@@H](C(C)(C)C)CC2"
  Subject of test: "Glucagon receptor (Homo sapiens)"
  Assigned class: "c3"
- Compound string: "CC(C)(C)CC[C@H](c1ccc(C(=O)NCc2nn[nH]n2)cc1)N1C(=O)C(c2ccc(F)c(F)c2)=N[C@]12CC[C@@H](C(C)(C)C)CC2"
  Subject of test: "Glucagon receptor (Homo sapiens)"
  Assigned class: "c1"
- Compound string: "C[C@H](c1ccc(C(=O)NCCC(=O)O)cc1)N1C(=O)C(c2cc(Cl)ccc2F)=N[C@]12CC[C@@H](C(C)(C)C)CC2"
  Subject of test: "Glucagon receptor (Homo sapiens)"
  Assigned class: "c2"
- Compound string: "COc1cccc(C2=N[C@]3(CC[C@@H](C(C)(C)C)CC3)N([C@H](CCC(C)(C)C)c3ccc(C(=O)NCc4nn[nH]n4)cc3)C2=O)c1"
  Subject of test: "Glucagon receptor (Homo sapiens)"
  Assigned class: "c2"
- Compound string: "CC(C)(C)CC[C@H](c1ccc(C(=O)NCc2nn[nH]n2)cc1)N1C(=O)C(c2cccc(Cl)c2)=N[C@]12CC[C@@H](C(C)(C)C)CC2"
  Subject of test: "Glucagon receptor (Homo sapiens)"
  Assigned class: "c1"

* * *

# Procedure details: Volume of distribution at steady state in dog at 1 mg/kg, iv
# Assay type: ADME, organism-based, Canis lupus familiaris
# Design: dose 1 mg/kg, route intravenous
# Protocol conditions: in vivo, read-out: Vdss
Quantity: Vd (L/kg)

- Compound string: "CC(C)(C)CC[C@H](c1ccc(C(=O)NCc2nn[nH]n2)cc1)N1C(=O)C(c2cc(Cl)cc(Cl)c2)=N[C@]12CC[C@@H](C(C)(C)C)CC2"
  Quantity: "Vd"
  Endpoint result: 0.1

* * *

# Procedure details: Half life in rat at 3 mg/kg, iv
# Assay type: ADME, organism-based
# Set-up: dose 3 mg/kg, route intravenous
# Protocol conditions: in vivo

- Compound string: "CC(C)(C)CC[C@H](c1ccc(C(=O)NCc2nn[nH]n2)cc1)N1C(=O)C(c2cc(Cl)cc(Cl)c2)=N[C@]12CC[C@@H](C(C)(C)C)CC2"
  Unit annotation: "h"
  half-life: 8.3

* * *

# Procedure details: Oral bioavailability in mouse at 3 mg/kg
# Format: ADME, organism-based
# Protocol conditions: in vivo
Quantity: bioavailability (%)

- Compound string: "CC(C)(C)CC[C@H](c1ccc(C(=O)NCc2nn[nH]n2)cc1)N1C(=O)C(c2cc(Cl)cc(Cl)c2)=N[C@]12CC[C@@H](C(C)(C)C)CC2"
  Unit annotation: "%"
  Endpoint result: 31

* * *

# Subject of test: Glucagon receptor (Homo sapiens, UniProt P47871)
# Sequence (P47871 whole entry): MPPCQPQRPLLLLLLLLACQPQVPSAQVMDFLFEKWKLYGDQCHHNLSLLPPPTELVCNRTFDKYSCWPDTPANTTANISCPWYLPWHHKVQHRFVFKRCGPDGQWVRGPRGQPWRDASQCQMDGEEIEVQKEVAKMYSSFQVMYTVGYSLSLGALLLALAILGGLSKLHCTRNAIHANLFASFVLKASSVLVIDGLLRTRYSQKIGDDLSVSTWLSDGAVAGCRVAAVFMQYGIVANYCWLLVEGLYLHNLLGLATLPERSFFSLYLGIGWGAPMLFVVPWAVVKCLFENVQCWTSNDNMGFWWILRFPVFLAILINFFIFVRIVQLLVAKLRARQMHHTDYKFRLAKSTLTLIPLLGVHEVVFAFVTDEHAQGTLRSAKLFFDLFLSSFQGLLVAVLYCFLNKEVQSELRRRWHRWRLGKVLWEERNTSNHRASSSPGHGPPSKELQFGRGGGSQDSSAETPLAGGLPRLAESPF
# Procedure details: biochemical
# Assay type: cell-based, CHO
# Description: Displacement of [125I]-glucagon from recombinant human GCGR expressed in CHO cells after 60 mins by scintillation counting analysis
# log10(IC50) listing for each entry below
Quantity: log10(IC50) (log10 of the value in nM)

- Compound: "C[C@H](c1ccc(C(=O)NCCC(=O)O)cc1)N1C(=O)C(c2cccc(F)c2)=N[C@]12CC[C@@H](C(C)(C)C)CC2"
  Endpoint result: 2.69
- Compound: "COc1cccc(C2=N[C@]3(CC[C@@H](C(C)(C)C)CC3)N([C@H](CCC(C)(C)C)c3ccc(C(=O)NCc4nn[nH]n4)cc3)C2=O)c1"
  Endpoint result: 1.18
- Compound: "CC(C)(C)[C@H]1CC[C@]2(CC1)N=C(c1ccc(Cl)cc1)C(=O)N2Cc1ccc(C(=O)NCCC(=O)O)cc1"
  Endpoint result: 2.97
- Compound: "C[C@H](c1ccc(C(=O)NCCC(=O)O)cc1)N1C(=O)C(c2ccc(C(F)(F)F)cc2)=N[C@]12CC[C@@H](C(C)(C)C)CC2"
  Endpoint result: 2.23
- Compound: "C[C@H](c1ccc(C(=O)Nc2nnn[nH]2)cc1)N1C(=O)C(c2cc(Cl)cc(Cl)c2)=N[C@]12CC[C@@H](C(C)(C)C)CC2"
  Endpoint result: 2.67
- Compound: "CC[C@H]1CC[C@]2(CC1)N=C(c1cc(Cl)cc(Cl)c1)C(=O)N2[C@H](CCC(C)(C)C)c1ccc(C(=O)NCc2nn[nH]n2)cc1"
  Endpoint result: 1.64
- Compound: "C[C@H](c1ccc(C(=O)NC[C@H](O)C(=O)O)cc1)N1C(=O)C(c2cc(Cl)cc(Cl)c2)=N[C@]12CC[C@@H](C(C)(C)C)CC2"
  Endpoint result: 2.20
- Compound: "CC(C)(C)CC[C@H](c1ccc(C(=O)NCc2nn[nH]n2)cc1)N1C(=O)C(c2cc(Cl)cc(Cl)c2)=N[C@]12CC[C@@H](C(C)(C)C)CC2"
  Endpoint result: 1.38
- Compound: "CC(C)CC[C@H](c1ccc(C(=O)NCc2nn[nH]n2)cc1)N1C(=O)C(c2cc(Cl)cc(Cl)c2)=N[C@]12CC[C@@H](C(C)(C)C)CC2"
  Endpoint result: 1.34
- Compound: "CCCC[C@H](c1ccc(C(=O)NCc2nn[nH]n2)cc1)N1C(=O)C(c2cc(Cl)cc(Cl)c2)=N[C@]12CC[C@@H](C(C)(C)C)CC2"
  Endpoint result: 1.36
- Compound: "C[C@H](c1ccc(C(=O)NCCC(=O)O)cc1)N1C(=O)C(c2cccc(C(F)(F)F)c2)=N[C@]12CC[C@@H](C(C)(C)C)CC2"
  Endpoint result: 2.86
- Compound: "CC(C)(C)CC[C@H](c1ccc(C(=O)Nc2nnn[nH]2)cc1)N1C(=O)C(c2cc(Cl)cc(Cl)c2)=N[C@]12CC[C@@H](C(C)(C)C)CC2"
  Endpoint result: 2.78
- Compound: "CC(C)(C)CC[C@H](c1ccc(C(=O)NCc2nn[nH]n2)cc1)N1C(=O)C(c2cnccc2C(F)(F)F)=N[C@]12CC[C@@H](C(C)(C)C)CC2"
  Endpoint result: 1.34
- Compound: "CC(C)(C)CC[C@H](c1ccc(C(=O)NCc2nn[nH]n2)cc1)N1C(=O)C(c2ccc(C(F)(F)F)cc2)=N[C@]12CC[C@@H](C(C)(C)C)CC2"
  Endpoint result: 0.85
- Compound: "CC(C)(C)CC[C@H](c1ccc(C(=O)NCc2nn[nH]n2)cc1)N1C(=O)C(c2cccc(C(F)(F)F)c2)=N[C@]12CC[C@@H](C(C)(C)C)CC2"
  Endpoint result: 1.11
- Compound: "Cc1cccc(C2=N[C@]3(CC[C@@H](C(C)(C)C)CC3)N([C@H](C)c3ccc(C(=O)NCCC(=O)O)cc3)C2=O)c1"
  Endpoint result: 2.18
- Compound: "C[C@H](c1ccc(C(=O)NCCC(=O)O)cc1)N1C(=O)C(c2cc(F)cc(Cl)c2)=N[C@]12CC[C@@H](C(C)(C)C)CC2"
  Endpoint result: 0.78
- Compound: "C[C@H](c1ccc(C(=O)NCc2nnn[nH]2)cc1)N1C(=O)C(c2cc(Cl)cc(Cl)c2)=N[C@]12CC[C@@H](C(C)(C)C)CC2"
  Endpoint result: 2.11
- Compound: "C[C@H](c1ccc(C(=O)NCCC(=O)O)cc1)N1C(=O)C(c2cc(Cl)cc(Cl)c2)=N[C@]12CC[C@@H](C(C)(C)C)CC2"
  Endpoint result: 1.98
- Compound: "CC(C)(C)CC[C@H](c1ccc(C(=O)NCc2nn[nH]n2)cc1)N1C(=O)C(c2ccc(F)c(F)c2)=N[C@]12CC[C@@H](C(C)(C)C)CC2"
  Endpoint result: 1.11
- Compound: "C[C@H](c1ccc(C(=O)NCCC(=O)O)cc1)N1C(=O)C(c2ccc(Cl)c(Cl)c2)=N[C@]12CC[C@@H](C(C)(C)C)CC2"
  Endpoint result: 1.98
- Compound: "CC(C)(C)CC[C@H](c1ccc(C(=O)NCCCC(=O)O)cc1)N1C(=O)C(c2cc(Cl)cc(Cl)c2)=N[C@]12CC[C@@H](C(C)(C)C)CC2"
  Endpoint result: 2.43
- Compound: "CC(Cc1ccc(C(=O)NCCC(=O)O)cc1)N1C(=O)C(c2cc(Cl)cc(Cl)c2)=N[C@]12CC[C@@H](C(C)(C)C)CC2 (stereo partly specified)"
  Endpoint result: 2.28
- Compound: "C[C@H](CC(=O)O)NC(=O)c1ccc([C@@H](CCC(C)(C)C)N2C(=O)C(c3cc(Cl)cc(Cl)c3)=N[C@]23CC[C@@H](C(C)(C)C)CC3)cc1"
  Endpoint result: 2.08
- Compound: "CC(CN1C(=O)C(c2cc(Cl)cc(Cl)c2)=N[C@]12CC[C@@H](C(C)(C)C)CC2)c1ccc(C(=O)NCCC(=O)O)cc1 (stereo partly specified)"
  Endpoint result: 2.95
